- targetOfAssay: Sigma non-opioid intracellular receptor 1 (Homo sapiens, UniProt Q99720)
- Sequence (Q99720 whole entry): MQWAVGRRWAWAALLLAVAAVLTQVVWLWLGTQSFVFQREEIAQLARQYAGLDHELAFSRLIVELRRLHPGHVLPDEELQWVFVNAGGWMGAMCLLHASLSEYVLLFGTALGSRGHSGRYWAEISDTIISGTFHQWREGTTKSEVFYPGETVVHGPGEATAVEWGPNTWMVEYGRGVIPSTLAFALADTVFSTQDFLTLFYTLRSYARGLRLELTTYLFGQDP
- experimentDescription: GPCRScan assay: inhibition of Sigma 1
parameterMeasured: pKi
Quick note: pKi means taking -log10 of the concentration in moles per liter.

pKi in this record for "CC(=O)Nc1nc(CN2CCC[C@H](Cc3cc(C)nc(C)c3)C2)cs1" : 7.20

* * *

- targetOfAssay: Sigma intracellular receptor 2 (Homo sapiens, UniProt Q5BJF2)
- Sequence (Q5BJF2 whole entry): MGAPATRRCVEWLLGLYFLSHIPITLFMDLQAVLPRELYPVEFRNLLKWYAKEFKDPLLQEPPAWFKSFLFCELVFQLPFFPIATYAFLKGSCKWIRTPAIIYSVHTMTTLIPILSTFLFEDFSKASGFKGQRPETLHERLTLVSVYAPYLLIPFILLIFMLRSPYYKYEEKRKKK
- experimentDescription: GPCRScan assay: inhibition of Sigma 2
- Set-up: radioligand conc. used [nm] 5.0, parental cells HEKT
- measurementSetup: read-out: Ki
parameterMeasured: Ki (µM)
Give your result in µM as a bare value.

Ki in this record for "CC(=O)Nc1nc(CN2CCC[C@H](Cc3cc(C)nc(C)c3)C2)cs1" : 1.4

* * *

- targetOfAssay: UniProt:P41145
- Sequence (P41145 whole entry): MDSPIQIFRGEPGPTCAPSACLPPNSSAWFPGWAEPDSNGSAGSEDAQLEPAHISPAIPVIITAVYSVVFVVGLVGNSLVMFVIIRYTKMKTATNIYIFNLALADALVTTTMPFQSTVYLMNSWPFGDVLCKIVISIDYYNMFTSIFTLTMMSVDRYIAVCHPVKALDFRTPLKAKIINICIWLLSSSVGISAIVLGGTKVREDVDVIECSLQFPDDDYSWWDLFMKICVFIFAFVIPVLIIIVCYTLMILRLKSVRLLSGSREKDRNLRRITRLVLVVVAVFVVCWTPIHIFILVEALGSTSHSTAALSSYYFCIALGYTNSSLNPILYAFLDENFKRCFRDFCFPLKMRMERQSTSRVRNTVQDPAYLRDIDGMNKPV
- experimentDescription: GPCRScan assay: inhibition of KOR
- Parameters: radioligand conc. used [nm] 0.6 – 1.2, parental cells stable HEK
- measurementSetup: read-out: Ki
parameterMeasured: pKi
Quick note: pKi means taking -log10 of the concentration in moles per liter.

pKi in this record for "CC(=O)Nc1ncc(CN2CCC[C@H](Cc3cc(C)nc(C)c3)C2)s1" : 6.11
